- SUBJECT_OF_TEST: RAC-alpha serine/threonine-protein kinase (Homo sapiens)
- Sequence (P31749 whole entry): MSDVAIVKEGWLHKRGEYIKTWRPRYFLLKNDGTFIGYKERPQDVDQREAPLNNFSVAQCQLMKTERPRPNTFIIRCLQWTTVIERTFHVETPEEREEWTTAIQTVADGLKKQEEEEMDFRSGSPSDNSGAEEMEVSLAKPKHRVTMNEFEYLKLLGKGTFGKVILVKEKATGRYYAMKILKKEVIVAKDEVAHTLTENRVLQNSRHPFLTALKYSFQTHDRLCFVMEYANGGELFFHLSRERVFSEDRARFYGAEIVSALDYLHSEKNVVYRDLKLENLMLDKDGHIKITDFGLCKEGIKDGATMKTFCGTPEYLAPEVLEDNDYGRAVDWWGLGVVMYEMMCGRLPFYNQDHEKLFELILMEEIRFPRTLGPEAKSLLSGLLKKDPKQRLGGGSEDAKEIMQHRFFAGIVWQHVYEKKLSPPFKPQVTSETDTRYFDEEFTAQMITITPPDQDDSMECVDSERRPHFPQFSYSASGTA
MEASUREMENT_TYPE: IC50

Return the recorded IC50 value; entry: COc1cc2ncnc(Nc3ccc(F)c(Cl)c3)c2cc1NC(=O)/C(F)=C/CN(C)C > 10 µM

###

- PROTOCOL_TEXT: Cmax in BALB/c mouse at 10 mg/kg, po after 24 hrs by LC/MS/MS method
- Format: ADME, organism-based
- Design: dose 10 mg/kg, route oral
- ASSAY_CONDITIONS: in vivo
MEASUREMENT_TYPE: Cmax (nM)
The answer is to be given in nM; state only the numeric part.

Return the recorded Cmax value; entry: CCOc1cc2ncnc(Nc3ccc(OCc4ccccn4)c(Cl)c3)c2cc1NC(=O)/C(F)=C/CN(C)C 2660

Return the recorded Cmax value; entry: CN(C)C/C=C/C(=O)Nc1cc2c(Nc3ccc(F)c(Cl)c3)ncnc2cc1O[C@H]1CCOC1 [AFATINIB] 130

Return the recorded Cmax value; entry: COc1cc2ncnc(Nc3ccc(F)c(Cl)c3)c2cc1NC(=O)/C(F)=C/CN(C)C 790

Return the recorded Cmax value; entry: CN(C)C/C=C(\F)C(=O)Nc1cc2c(Nc3ccc(F)c(Cl)c3)ncnc2cc1O[C@H]1CCOC1 940

###

The molecules listed here are annotated with their Kp at 6 h.
- PROTOCOL_TEXT: Ratio of drug level in lung to plasma in BALB/c mouse at 30 mg/kg, po after 6 hrs by LC/MS/MS method
- Format: ADME, organism-based
- Design: dose 30 mg/kg, route oral
Please give only the number in your answer, with no unit.

{"columns": ["SMILES_INPUT", "RECORDED_VALUE"],
 "data": [
  ["COc1cc2ncnc(Nc3ccc(F)c(Cl)c3)c2cc1NC(=O)/C(F)=C/CN1CCCCC1", 20],
  ["CCOc1cc2ncnc(Nc3ccc(OCc4ccccn4)c(Cl)c3)c2cc1NC(=O)/C(F)=C/CN(C)C", 11]
]}

Return the recorded Kp at 6 h value; entry: CN(C)C/C=C(\F)C(=O)Nc1cc2c(Nc3ccc(F)c(Cl)c3)ncnc2cc1O[C@H]1CCOC1 25

###

The compounds listed here are annotated with their log10 of microsomal CLint at 1 µM.
- PROTOCOL_TEXT: Intrinsic clearance in human liver microsomes assessed per mg protein at 1 uM in presence of NADPH after 0.5 to 30 mins by LC/MS/MS method
- Type: ADME
- ASSAY_CONDITIONS: read-out: CLH
Base-10 log of microsomal CLint at 1 µM, unit µL/min/mg.

Some solved cases for reference:
{"columns": ["COMPOUND", "log10 of microsomal CLint at 1 µM"],
 "data": [
  ["C=CC(=O)Nc1cc2c(Nc3ccc(F)c(Cl)c3)ncnc2cc1OCCCN1CCOCC1 [CANERTINIB]", 1.70],
  ["CN(C)C/C=C/C(=O)Nc1cc2c(Nc3ccc(F)c(Cl)c3)ncnc2cc1O[C@H]1CCOC1 [AFATINIB]", 0.90],
  ["CCOc1cc2ncnc(Nc3ccc(OCc4ccccn4)c(Cl)c3)c2cc1NC(=O)/C(F)=C/CN(C)C", 1.43],
  ["CN(C)C/C=C(\\F)C(=O)Nc1cc2c(Nc3ccc(F)c(Cl)c3)ncnc2cc1O[C@H]1CCOC1", 0.30],
  ["COc1cc2ncnc(Nc3ccc(F)c(Cl)c3)c2cc1NC(=O)/C(F)=C/CN(C)C", 1.15]
]}

Return the recorded log10 of microsomal CLint at 1 µM value; entry: COc1cc2ncnc(Nc3ccc(F)c(Cl)c3)c2cc1NC(=O)/C(F)=C/CN1CCCCC1 1.57
